System: Fer (mouse);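 note: 11-residue human phosphosite peptides and single-mutation variants displayed on the E. coli surface, counted by deep sequencing, each peptide's frequency after selection divided by its frequency in the unselected input library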;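 note: frequency after pTyr selection over input frequency; kinase dosed for 20-30% of maximal phosphorylation in three min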
Assay Details: phosphorylation enrichment, bacterial display (enrichment ratio); higher = better substrate or ligand; peptides without Tyr show the background
Property Label: phosphorylation enrichment
I'd appreciate a reply containing only the number, no unit.

Sequence Text | phosphorylation enrichment
NHFKICNLCAE [PTEN_Y68_Y68C_YF] | 0.4
KDFTKYVAYIE [KDM4B_Y31_N29T] | 0.434
AASTDYFKRGD [PDHA1_Y242_YF] | 0.363
RDLRTYIMPAH [PNMT_Y256] | 0.419
RRNSPYSQTMK [TET2_Y819] | 0.63
AHLLQYNHQVK [LGALS3_Y221_R224Q] | 0.583
WTAHSYRMGST [ARHGEF7_Y785] | 0.482
YFRDGYMPRQY [GSS_Y270] | 0.531

For the sequence FPMLNYKDIRK [CFAP221_Y798] , give its reported phosphorylation enrichment.
0.362

Write down phosphorylation enrichment measured for item CTTIHYNFMCD [TP53_Y234_N239D_YF]
0.49

Answer with the recorded phosphorylation enrichment of TVDASYCGGRG [ANTXR2_Y380_Y381C] only.
0.402

Tell me measured phosphorylation enrichment for LNSFIYSLRNR [OR1A1_Y288_P285S] please.
0.693

Return phosphorylation enrichment (reported value) for this sequence: TEVRRYVLPLN [RPE65_Y368_P363T]
0.514

Provide one value: measured phosphorylation enrichment of LSTPEYGPKLK [TBC1D14_Y46_A43T]
0.461

// Input: KHGGNYVPAPE [OSCP1_Y237_K242E] . Output its phosphorylation enrichment only.
0.36

// fetch phosphorylation enrichment given entry FPPTHYIRRMP [SLC4A11_Y820_V824M_YF]
0.445

Return phosphorylation enrichment for the following sequence: KDFTKYVAFIE [KDM4B_Y31_N29T_YF]
0.422
